Values from patent EP4471048A1

# Experiment Notes: Peptide stability in simulated intestinal fluid (SIF)
# Format: in vitro ADME
# Reported Conditions: pig, 37 °C, porcine pancreatin, pH 6.8, 4 h, read-out: SIF (% remaining 4 h)
# Method: SGF was prepared by dissolving sodium chloride (0.2 g) in 50 mL of water. A volume of 0.7 mL of 10 M HCl was added to adjust the pH of the solution to 1.2 and the volume made up to 100 mL with water. […] SIF was prepared by dissolving monobasic potassium phosphate (0.68 g) in 50 mL of water and adjusting the pH to 6.8 with 1 M NaOH. […] The incubation was performed at 37 °C with gentle shaking. […] Percent remaining at each timepoint was calculated relative to timepoint zero based on absolute peak areas. […]
*1 amine or outer side, *2 acyl side, *3 side chain or, on linkers, in order; H or OH if unused. Where a SMILES comes first, the peptide text is derived from it. Bridges are numbered along the chain shown (N, C = ends). [ ]: non-standard residue; d: D form. 2Nal = N[C@@H](Cc1ccc2ccccc2c1)C(=O)O; AEF = NCCOc1ccc(C[C@H](N)C(=O)O)cc1; 3Pal = N[C@@H](Cc1cccnc1)C(=O)O; αMeL = CC(C)C[C@](C)(N)C(=O)O; CH2COCH2 = O=C(C[*:1])C[*:2]; 3Amb = NCc1cccc(C(=O)O)c1
Parameter: remaining at 4 h, 10 µM (%)
Answer in %, number only, no unit symbol.

{"Compound": "CC(C)C[C@]1(C)NC(=O)[C@H](Cc2ccc3ccccc3c2)NC(=O)[C@H](Cc2ccc(OCCN)cc2)NC(=O)[C@@H]2CSCC(=O)CSC[C@H](NC(=O)[C@H](CO)NC(=O)c3cccc(c3)CNC(=O)CC[C@@H](C(=O)N[C@@H](CCCNC(=N)N)C(=O)N[C@@H](Cc3cccnc3)C(N)=O)NC1=O)C(=O)N[C@@H](Cc1c[nH]c3ccccc13)C(=O)N[C@@H](CCC(N)=O)C(=O)N2 [Ref 78, reference compound] ([3Amb]SCWQC[AEF][2Nal][αMeL]ER[3Pal]-NH2; linker 3-6 via CH2COCH2; lactam N-10)", "remaining at 4 h, 10 µM (%)": 0}

Turning now to a further compound:
Query block: Return reported remaining at 4 h, 10 µM; argument: CC[C@H](C)[C@@H]1NC(=O)[C@@H]2CCCCNC(=O)CC[C@@H](C(=O)N[C@@H](CCN)C(=O)N[C@@H](Cc3cccnc3)C(=O)NC)NC(=O)[C@](C)(CC(C)C)NC(=O)[C@H](Cc3ccc4ccccc4c3)NC(=O)[C@H](Cc3ccc(OCCN)cc3)NC(=O)[C@H](CCC(=O)N2C)NC(=O)[C@H](CCC(N)=O)NC(=O)[C@H](Cc2c[nH]c3ccccc23)NC(=O)[C@H](C(C)C)NC1=O
Result block: 79
